Data provenance is the nanobody polyreactivity screen of Harvey et al. (2022).

- assay: yeast display, Sf9 membrane polyspecificity reagent, FACS + sequencing; frameworks hold sequencing errors
reported.metric: polyreactivity (PSR sort gate)

chain | reported.metric | value.reported
QVQLVESGGGLVQAGGSLRLSCAASGSTFSFNAMGWYRQAPGKERELVAAIRWSGGSTYYADSVKGRFTISRDNAKNTVYLQMNSLKPEDTAVYYCATYWKGGRPPYRYYYWGQGTQVTVSS | polyreactivity (PSR sort gate) | high polyreactivity
QVQLVESGGGLVQAGGSLRLSCAASGRTFRYYAMGWYRQAPGKERELVAAISQTGARTYYADSVKGRFTISRDNAKNTVYLQMNSLKPEDTAVYYCNAYSRSGHQSDGYDYWGQGTQVTVSS | polyreactivity (PSR sort gate) | high polyreactivity
QVQLVESGGGLVQAGGSLRLSCAASGRISKIYAMGWYRQAPGKERELVAAINSGGSTNYADSVKGRFTISRDNAKNTVYLQLNSLKPEDTAVYYCAATFKSGMDYWGQGTQVTVSS | polyreactivity (PSR sort gate) | high polyreactivity
QVQLVESGGGLVQAGGSLRLSCAASGRIFYNSVMGWYRQAPGKERELVAAISSSGGSTYYADSVKGRFTISRDNAKNTVYLQMNSLKPEDTAVYYCATTRRVPGEYWGQGTQVTVSS | polyreactivity (PSR sort gate) | high polyreactivity
QVQLVESGGGLVQAGGSLRLSCAASGRTFRYYAMGWYRQAPGKERELVAAISSSGDRTYYADSVKGRFTISRDNAKKTVYLQMNSLKPEDTAVYYCAADRGARGDYWGQGTQVTVSS | polyreactivity (PSR sort gate) | high polyreactivity
QVQLVESGGGLVQAGGSLRLSCAASGSNFYPYAMGWYRQAPGKERELVAAITGTGGSTYYADSVKGRFTISRDNAKNTVYLQMNSLKPEDTAVYYCATRRRYYYSRYNYWGQGTQVTVSS | polyreactivity (PSR sort gate) | high polyreactivity

Entry under test: QVQLVESGGGLVQAGGSLRLSCAASGFTFGYYTMGWYRQAPGKERELVAAISSGGSTNYADSVKGRFTISRDNAKNTVYLQMNSLKPEDTAVYYCTATQIGPYYLPFDSWGQGTQVTVSS . Its polyreactivity (PSR sort gate) was high polyreactivity

Entry under test: QVQLVESGGGLVQAGGSLRLSCAPSGFTFGYYAMGWYRQAPGKEMELVAAISSSGGSTYYADSVKGRFTISRDNAKKTVYLQMNSLKREVTAVYYCAVVVFSRVYRYFTSDYWGQGTQVTVSS . Its polyreactivity (PSR sort gate) was high polyreactivity

Entry under test: QVQLVESGGGLVQAGGSLRLSCAASGFTFGENDMGWYRQAPGKERELVATISYSGDSTYYAVSVKGLFTISRVNGKNTVYLHMNSLKPEDTAVYYCAAPLPHRVYDEGYWRQGTQVTVSS . Its polyreactivity (PSR sort gate) was low polyreactivity

Entry under test: QLQLVDSGGGLVQAGGSLRLSCAASGRIFSANAMGWYRQAPGKERELVAAIDGSDGITYYADSVKGRFTISRDNAKNTVYLQMNSLKPEDTAVYYCAAYLPYTTYRYRYDYWGQGNQVTVSS . Its polyreactivity (PSR sort gate) was high polyreactivity

Entry under test: QVQLVESGGCLVQAGGSLRLSCAASGRTFRRYAMGWYRQAPGKERELVASITWRGGRTYYADSVKGRFTISRDNAKNTVYLQMNSLKPEDTAVYYCAAEDYQLPGYRRTHVEKMDYWGQGTQVTVSS . Its polyreactivity (PSR sort gate) was low polyreactivity

###

- assay: yeast display, Sf9 membrane polyspecificity reagent, FACS + sequencing; frameworks hold sequencing errors

chain | polyreactivity (PSR sort gate)
QVQLEESGGGLVQAGGSLSLSCAASGNFFVLYAMGCYRQAPGKERELVASITSDGITYYADSVKGRFTMSRDNAKNTVYLQMNSLKPEDTAVYYCAVDRSYRYLPRGDYWGQGTQVTVSS | low polyreactivity
QVQLVESGGGLVQAGGSLSLSCAASGSIIPDYAMGWYRQAPGKERELVAAITWRDDSTYYADSVKGRFTISRDNAKNTVYLQMNSLKPEDTAVYYCNASALDPLYAKDDYWGQGTQVTVSS | low polyreactivity

###

- assay: yeast display, Sf9 membrane polyspecificity reagent, FACS + sequencing; frameworks hold sequencing errors
reported.metric: polyreactivity (PSR sort gate)

chain | value.reported
QVQLVESGGGLVQAGGSLRLSCAASGFIFGHNTMGWYRPAPGKERELVAAIDGGGGTSYADSVKGRFTISRDNAKNTVYLQMNSLKPEDTAVYYCAAYVAKGPLEYYYHYPYDYWGQGTQVTVSS | low polyreactivity
QVQLVESGGGLVQAGGRLRLSCAASGTIFYYNAMGWYRQAPGKERELVAVISQSGTSTYYADSVKGRFTNSRDNAKNTVYLQMNSLKPEDTAVYYCAADSRHGSIMDYWGLGTQVTVSS | low polyreactivity
QVQLVESGGGLVQAGGSLRLSCAASGRTSSSYAMGWSRQAPGKERELVASITSSGRTYYADSVKGRFTISRDNAKNTVYLQMNSLKPEDTAVYYCAAPFYRVRGWYARTPYGYWGQGTQVTVSS | high polyreactivity
QVQLVESGGGLVQAGGSLRLSCDASGIILNINAMGWYRQAPGKERELVAAITSDGSTNYADSVKGRFTISRDNAKNTVYLQMNSLKPEDTAVYYCAVDLPWGTGVSQYPESDYWGQGTQVTVSS | low polyreactivity
QVQLVESGGGLVQAGGSLRLSCAASGSTFGHYAMGWSRQAPGKERELVAVISRSGARTYYADSVKGRFTISRDNAKNTVYLQMNSLKPEDTAVYYCATTYATNYDYWGQGTQVTVSS | high polyreactivity
QVQLVESGGGLVQAGGSLRLSCAASGRTFVLYTMGWYRQAPGKERELVAVGSTYYADSVKGRFTISRDNAKNTVYLQMNSLKPEDTAVYYCNKPGNYVWRRSWDFDYWGQGTQVTVSS | high polyreactivity
QVQLVESGGGLVQAGGSLRLSCAASGRTFCGYTMGWYRQAPGKERELVAAITKRGGSTYYADSVKGRFTISRDNAKNTVYLQMNSLKPEDTAVYYCAKTKTAGTIKYDYWGQGTQVTVSS | high polyreactivity
QVQLVESGGGLVQAGGSLRLSCAASGSTFPYYAMGRYRPAPGKEMELVAAISQNGGSSYYADSVKGRFTISRDNAKNTVYLQINSLKPEDTAVYYCNADGVGGEYRLSGYDYWGQGTQVTVSS | low polyreactivity
QVQLVESGGGLDQAGGSHRLSCAASGRTFPGNAMGWYRQAPGKERELVAAISWSGSRTYYADSLKGRFTISRDNAKNTVYLHMTRMKPEDTAVYYCNVVVKGAWEYYPYDYWGQGTEVTVSS | high polyreactivity
QVQLVESGGGLVQAGGSLSISCAASGLSFSVNAMGWYRPAPGKEREFVAAISSSGGRTYYADSVKGRFTISRDHAKNTVYLQMNSLKPEYTAGYYCATAQGSRVDYWGQGTQVTLSS | high polyreactivity

Consider the record given below.
Entry under test: QVQLVESGGGLVQAGGSLRLSCAASGIIFGFNTMGWYRQAPGKERELVAVITWSGGSTYYADSVKGRFTISRVFAKNTVYLQMNCLNPDDTAVYYCATVRAVEYNYWGQGTQVTVSS . Its polyreactivity (PSR sort gate) was low polyreactivity

###

- assay: yeast display, Sf9 membrane polyspecificity reagent, FACS + sequencing; frameworks hold sequencing errors
reported.metric: polyreactivity (PSR sort gate)

Below are worked cases with known answers.
chain | polyreactivity (PSR sort gate)
QVQLVESGGGLVQAGGSLRLSCAASGFTFSFYAIGLYRQATVKEREVVAAISWSGGSTYYADSVKGRFTISRDNAKNTVYLQMNSLKPEDTAVYFCAAKLLYGGRNGYWGQGTQVTVSS | high polyreactivity
QVQLVESGGGLVQAGGSLRLSCAASGFTFLVNAMGWYRQAPGKERELVAAISSGGSTYYADSVKGRFTISRDNAKNTVYLQMNSLKPEDTAVYYCAAPTDFLFWEFDYWGQCTQVTVSS | low polyreactivity
QVQLVESGGGLVQAGGSLLLSCAASGSTLDPNVMGWYRPAPGKERELVAAITSGGSTYYADSVKGRFTISRDNAKNTVYLQMNSLKPEDTAVYYCNKDKGWLAHSRIWLWYDYWGQGTQVTVSS | low polyreactivity
QVQLVESGGGLVQAGGSLRLSCAASGRTFRVYAMGGYRQAPGTERELVASISRRGAATYYADSVKGRFTISRDNAKNTVYRQMNSLKPEDTAVSDCAADRPYYSVSPNTEFEYWGQGTQVTVSS | high polyreactivity
QVQLVESGAGLVQAGGSLRLSCAASGFIFAGYAMGLYRQAPGKERELFAAISSRGGSTYYADSVKGRFTISRDNAKNPVDLQMNSLKPEDTAVYYCNKYYYGFTPVGYKKMDYWGQGTQVIVSS | low polyreactivity

Entry under test: QVQLVESVGGLVQAGGSLRLSCAASGFIFAFYAMGWYRQAPGKESELVAAIRTGGSTNYADSVKGRFTISRDNAKNTVYLQMNSLKPEDTAVYYCAAYGRGGYWRWERDYWGLGTQVTVSS . Its polyreactivity (PSR sort gate) was high polyreactivity

Entry under test: QVQLVESGGGLVHAGGSLRLSCAASGSTFRHNAMGWYRQAPGKERELVAAINRSGVSTHYADSVKGRFTISRDNAKNTVYLQMNSLKPEDTAVYYCAVDSYPKSLWYYGGVYSPLDYWGQGTQVTVSS . Its polyreactivity (PSR sort gate) was low polyreactivity

Entry under test: QVQLVESGGGLVQAGGSLRLSCAASGFTFDYYAMGWYRQAPGKERELVAVITSRGGSTFYADSVKGRFTISRDNAKNTVYLQMNSLKPEDTAVYYCARQHYRLFRPYDYWGQGTQVTVSS . Its polyreactivity (PSR sort gate) was high polyreactivity

Entry under test: QVQLVESGGGIVQAGGRLRLSCAASGSTFPSKAMGWYRQAPGKERELVAAISRGGTTNYADSVKGRFTISRDNAKNTVYLQMNSLKPEDTAVYYCAKVYKLYWYKAYRRDYWGQGTQVTVSS . Its polyreactivity (PSR sort gate) was high polyreactivity

Entry under test: QVQLVESAGGLVQAGGSLRLSCAAYGIIFKIYAMGWYRQAPGKERELVAAITRSGTRTYYADSVKGRFTISRDNEKNTVYFQMNSLKPEDTAGYYCNAYTSLAYDLDYWGQGTQVTVSS . Its polyreactivity (PSR sort gate) was high polyreactivity

Entry under test: QVQLVESGGGLVQAGGSLRLICAASGRTVYRYAMGWYRQAPGKERELVAAITTSGGSTYYADSVKGRFTISRDNAKKTVNIQMNSLKPEDTAVYYCARRVYGYYIPYNYWGKGTQVTVSS . Its polyreactivity (PSR sort gate) was high polyreactivity
